System: Pseudomonas aeruginosa
Experiment: In vitro antibacterial activity against Pseudomonas aeruginosa E-2
Format: functional
Readout name: MIC (mg/L)

See these solved cases before continuing.
Nc1nc(/C(=N/OCCSc2nnc(-c3cc(O)c(O)cn3)o2)C(=O)[N-][C@@H]2C(=O)N3C(C(=O)[O-])=C(C[n+]4ccc(SCCO)cc4)CS[C@H]23)cs1.[Na+]; 0.78
Nc1nc(/C(=N/OCCSc2nnc(-c3cc(O)c(O)cn3)o2)C(=O)N[C@@H]2C(=O)N3C(C(=O)[O-])=C(C[n+]4ccc(C(=O)[O-])cc4)CS[C@H]23)cs1.[Na+]; 3.13

A: NC(=O)c1cc[n+](CC2=C(C(=O)[O-])N3C(=O)[C@@H]([N-]C(=O)/C(=N\OCCSc4nnc(-c5cc(O)c(O)cn5)o4)c4csc(N)n4)[C@H]3SC2)cc1.[Na+]
B: Nc1nc(/C(=N/OCCSc2nnc(-c3cc(O)c(O)cn3)o2)C(=O)N[C@@H]2C(=O)N3C(C(=O)[O-])=C(CSc4nc5ccccc5s4)CS[C@H]23)cs1.[Na+]
stdin: Please indicate which has the smaller reported MIC: A , or B . Pick one; state its label.
stdout: B

----------
Tested on: Pseudomonas aeruginosa
Test: In vitro antibacterial activity against Pseudomonas aeruginosa E-2
Assay type: functional
Readout name: MIC (µg/mL)

See these solved cases before continuing.
Nc1nc(/C(=N/OCCSc2nnc(-c3cc(O)c(O)cn3)o2)C(=O)[N-][C@@H]2C(=O)N3C(C(=O)[O-])=C(CSc4cc[n+](CCO)cc4)CS[C@H]23)cs1.[Na+]; 0.39
CC(C)(O/N=C(\C(=O)N[C@@H]1C(=O)N2C(C(=O)[O-])=C(C[n+]3ccccc3)CS[C@H]12)c1csc(N)n1)C(=O)O; 1.56
Nc1nc(/C(=N/OCCSc2nnc(-c3cc(O)c(O)cn3)o2)C(=O)N[C@@H]2C(=O)N3C(C(=O)[O-])=C(CSc4ccccn4)CS[C@H]23)cs1.[Na+]; 0.39

1: Nc1nc(/C(=N/OCCSc2nnc(-c3cc(O)c(O)cn3)o2)C(=O)[N-][C@@H]2C(=O)N3C(C(=O)[O-])=C(C[n+]4ccccc4)CS[C@H]23)cs1.[Na+]
2: CC[n+]1ccc(SCC2=C(C(=O)[O-])N3C(=O)[C@@H]([N-]C(=O)/C(=N\OCCSc4nnc(-c5cc(O)c(O)cn5)o4)c4csc(N)n4)[C@H]3SC2)cc1.[Na+]
3: Nc1nc(/C(=N/OCCSc2nnc(-c3cc(O)c(O)cn3)o2)C(=O)N[C@@H]2C(=O)N3C(C(=O)[O-])=C(CSc4nnc(-c5ccncc5)o4)CS[C@H]23)cs1.[Na+]
stdin: Put the items in sequence by MIC, from largest down. Please list the labels according to the requested order.
stdout: 1, 3, 2
(1: 3.13 µg/mL, 3: 0.78 µg/mL, 2: 0.39 µg/mL)

----------
ED50 reference
System: Mus musculus
Assay: Tested in vivo for the therapeutic efficacy against systemic infection caused by Staphylococcus aureus Smith in mice at a challenge dose of 5*10e6 (cfu/mouse) + 5%mucin
Assay type: functional
Field: numeric (mg/kg). Do not append units.

CC(C)(O/N=C(\C(=O)N[C@@H]1C(=O)N2C(C(=O)[O-])=C(C[n+]3ccccc3)CS[C@H]12)c1csc(N)n1)C(=O)O [CEFTAZIDIME]; 8.1

Consider the additional molecule presented here.
stdin: # get_value(readout= ED50, system= Mus musculus) for CO/N=C(\C(=O)N[C@@H]1C(=O)N2C(C(=O)O)=C(COC(C)=O)CS[C@H]12)c1csc(N)n1 [CEFOTAXIME]
stdout: 4.6
